- Target Or System: T1, porcine CD163, membrane-bound form on porcine pulmonary alveolar macrophage (pPAM) WT cells (porcine, UniProt Q2VL90 47-1115)
- T1 construct: Native CD163 on primary cells; also called membrane CD163; cell-surface CD163
- T1 sequence: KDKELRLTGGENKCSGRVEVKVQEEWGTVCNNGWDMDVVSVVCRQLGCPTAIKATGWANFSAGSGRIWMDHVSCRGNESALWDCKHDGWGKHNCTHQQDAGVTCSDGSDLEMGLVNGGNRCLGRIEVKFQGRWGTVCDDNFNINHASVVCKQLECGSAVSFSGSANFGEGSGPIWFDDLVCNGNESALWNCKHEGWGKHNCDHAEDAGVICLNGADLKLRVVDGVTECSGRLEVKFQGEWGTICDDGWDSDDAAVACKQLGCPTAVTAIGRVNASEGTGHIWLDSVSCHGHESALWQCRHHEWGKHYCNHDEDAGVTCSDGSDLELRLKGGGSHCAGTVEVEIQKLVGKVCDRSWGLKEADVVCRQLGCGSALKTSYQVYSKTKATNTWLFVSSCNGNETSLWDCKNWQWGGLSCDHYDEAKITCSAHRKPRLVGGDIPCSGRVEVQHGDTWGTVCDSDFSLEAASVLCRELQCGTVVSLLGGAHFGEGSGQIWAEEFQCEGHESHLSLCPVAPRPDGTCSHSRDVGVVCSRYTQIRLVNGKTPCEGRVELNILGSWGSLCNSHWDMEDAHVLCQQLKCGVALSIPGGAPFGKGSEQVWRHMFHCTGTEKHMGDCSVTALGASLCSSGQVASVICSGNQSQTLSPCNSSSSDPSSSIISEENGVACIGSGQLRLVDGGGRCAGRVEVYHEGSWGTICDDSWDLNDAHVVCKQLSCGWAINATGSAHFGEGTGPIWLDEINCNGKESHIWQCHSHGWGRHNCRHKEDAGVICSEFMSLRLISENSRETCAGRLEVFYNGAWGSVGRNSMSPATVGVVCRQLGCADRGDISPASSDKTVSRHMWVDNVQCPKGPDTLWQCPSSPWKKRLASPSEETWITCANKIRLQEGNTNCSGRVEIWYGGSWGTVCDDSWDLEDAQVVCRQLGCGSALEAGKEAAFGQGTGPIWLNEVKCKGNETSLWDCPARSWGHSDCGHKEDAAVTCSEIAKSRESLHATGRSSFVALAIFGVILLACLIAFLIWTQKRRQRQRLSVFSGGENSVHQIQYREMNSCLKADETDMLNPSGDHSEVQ
- Experiment Description: dose-response FACS on pPAM WT cells, anti-FLAG-biotin and streptavidin R-PE detection
Property Label: pEC50
Numbers only, as −log10 of the molar value.

q: // Input: 17B11 + 03E11 + 03D03 2(G4S) triparatopic VHH construct (bispecific antibody, Triparatopic; also called Tri-10; Triparatopic-10; not shown: FLAG and His tags) QVQLVESGGGLVQAGGSLRLSCAASGRTFSSYAMGWFRQTPGKDREFVARIGWTGGTTIYADSVKGRFTISRDNAKNTVYLQMNSLKPEDTAVYYCAADQAGWRTAGVRNTYEYDYWGQGTQVTVSSGGGGSGGGGSQVQLQESGGGLVQVGSSLRLSCVTSGRTPSRYVMGWFRQAPGQEREFVAAISWSGRAPYADSVKGRFTISRDNAKNTVYLQMNSLKPEDTGVYYCAGGEGAIKWTTLDAYDYWGQGTQVTVSSGGGGSGGGGSQLQLVESGGGLVQPGGSLRLSCAASGFTLDDYTIGWFRQAPGKEREGVSCINSITSNTYYADSVKGRFTISRDNAKNTVYLQMNSLTAEDTAIYYCAADSGLFSGSSCLKYRAMRFGSWGQGTQVTVSS . Output its pEC50 only.
a: 7.94

q: // Input: 03E11 + 03D03 5(G4S) biparatopic VHH construct (bispecific antibody, Biparatopic; not shown: FLAG and His tags) QVQLQESGGGLVQVGSSLRLSCVTSGRTPSRYVMGWFRQAPGQEREFVAAISWSGRAPYADSVKGRFTISRDNAKNTVYLQMNSLKPEDTGVYYCAGGEGAIKWTTLDAYDYWGQGTQVTVSSGGGGSGGGGSGGGGSGGGGSGGGGSQLQLVESGGGLVQPGGSLRLSCAASGFTLDDYTIGWFRQAPGKEREGVSCINSITSNTYYADSVKGRFTISRDNAKNTVYLQMNSLTAEDTAIYYCAADSGLFSGSSCLKYRAMRFGSWGQGTQVTVSS . Output its pEC50 only.
a: 8.19

q: // Input: 03E11 + 17B11 2(G4S) biparatopic VHH construct (bispecific antibody, Biparatopic; not shown: FLAG and His tags) QVQLQESGGGLVQVGSSLRLSCVTSGRTPSRYVMGWFRQAPGQEREFVAAISWSGRAPYADSVKGRFTISRDNAKNTVYLQMNSLKPEDTGVYYCAGGEGAIKWTTLDAYDYWGQGTQVTVSSGGGGSGGGGSQVQLVESGGGLVQAGGSLRLSCAASGRTFSSYAMGWFRQTPGKDREFVARIGWTGGTTIYADSVKGRFTISRDNAKNTVYLQMNSLKPEDTAVYYCAADQAGWRTAGVRNTYEYDYWGQGTQVTVSS . Output its pEC50 only.
a: 8.17

q: // Input: 03E11 + 03D03 + 17B11 2(G4S) triparatopic VHH construct (bispecific antibody, Triparatopic: three anti-porcine CD163 VHHs in one chain; also called Tri-2; Tri2; not shown: FLAG and His tags) QVQLQESGGGLVQVGSSLRLSCVTSGRTPSRYVMGWFRQAPGQEREFVAAISWSGRAPYADSVKGRFTISRDNAKNTVYLQMNSLKPEDTGVYYCAGGEGAIKWTTLDAYDYWGQGTQVTVSSGGGGSGGGGSQLQLVESGGGLVQPGGSLRLSCAASGFTLDDYTIGWFRQAPGKEREGVSCINSITSNTYYADSVKGRFTISRDNAKNTVYLQMNSLTAEDTAIYYCAADSGLFSGSSCLKYRAMRFGSWGQGTQVTVSSGGGGSGGGGSQVQLVESGGGLVQAGGSLRLSCAASGRTFSSYAMGWFRQTPGKDREFVARIGWTGGTTIYADSVKGRFTISRDNAKNTVYLQMNSLKPEDTAVYYCAADQAGWRTAGVRNTYEYDYWGQGTQVTVSS . Output its pEC50 only.
a: 8.04

q: // Input: 03D03 + 03E11 + 17B11 2(G4S) triparatopic VHH construct (bispecific antibody, Triparatopic; not shown: FLAG and His tags) QLQLVESGGGLVQPGGSLRLSCAASGFTLDDYTIGWFRQAPGKEREGVSCINSITSNTYYADSVKGRFTISRDNAKNTVYLQMNSLTAEDTAIYYCAADSGLFSGSSCLKYRAMRFGSWGQGTQVTVSSGGGGSGGGGSQVQLQESGGGLVQVGSSLRLSCVTSGRTPSRYVMGWFRQAPGQEREFVAAISWSGRAPYADSVKGRFTISRDNAKNTVYLQMNSLKPEDTGVYYCAGGEGAIKWTTLDAYDYWGQGTQVTVSSGGGGSGGGGSQVQLVESGGGLVQAGGSLRLSCAASGRTFSSYAMGWFRQTPGKDREFVARIGWTGGTTIYADSVKGRFTISRDNAKNTVYLQMNSLKPEDTAVYYCAADQAGWRTAGVRNTYEYDYWGQGTQVTVSS . Output its pEC50 only.
a: 8.42

q: // Input: 17B11 + 03D03 5(G4S) biparatopic VHH construct (bispecific antibody, Biparatopic; not shown: FLAG and His tags) QVQLVESGGGLVQAGGSLRLSCAASGRTFSSYAMGWFRQTPGKDREFVARIGWTGGTTIYADSVKGRFTISRDNAKNTVYLQMNSLKPEDTAVYYCAADQAGWRTAGVRNTYEYDYWGQGTQVTVSSGGGGSGGGGSGGGGSGGGGSGGGGSQLQLVESGGGLVQPGGSLRLSCAASGFTLDDYTIGWFRQAPGKEREGVSCINSITSNTYYADSVKGRFTISRDNAKNTVYLQMNSLTAEDTAIYYCAADSGLFSGSSCLKYRAMRFGSWGQGTQVTVSS . Output its pEC50 only.
a: 8.18

Now for another entry.
q: // Input: 03D03 + 17B11 + 03E11 2(G4S) triparatopic VHH construct (bispecific antibody, Triparatopic; not shown: FLAG and His tags) QLQLVESGGGLVQPGGSLRLSCAASGFTLDDYTIGWFRQAPGKEREGVSCINSITSNTYYADSVKGRFTISRDNAKNTVYLQMNSLTAEDTAIYYCAADSGLFSGSSCLKYRAMRFGSWGQGTQVTVSSGGGGSGGGGSQVQLVESGGGLVQAGGSLRLSCAASGRTFSSYAMGWFRQTPGKDREFVARIGWTGGTTIYADSVKGRFTISRDNAKNTVYLQMNSLKPEDTAVYYCAADQAGWRTAGVRNTYEYDYWGQGTQVTVSSGGGGSGGGGSQVQLQESGGGLVQVGSSLRLSCVTSGRTPSRYVMGWFRQAPGQEREFVAAISWSGRAPYADSVKGRFTISRDNAKNTVYLQMNSLKPEDTGVYYCAGGEGAIKWTTLDAYDYWGQGTQVTVSS . Output its pEC50 only.
a: 7.87
